// values below are reported mCrhr1 Luciferase Reporter Assay IC50
Target: T1, corticotropin-releasing hormone (CRH) peptide (human and mouse (same sequence), not fully specified)
T1 peptide: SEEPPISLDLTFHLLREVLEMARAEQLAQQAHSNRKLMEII
Test: cell-based or functional assay
The response must be a number in nM with no trailing unit.

Some solved cases for reference:
Challenge: Query mCrhr1 Luciferase Reporter Assay IC50 for PR302341-23 (antibody, human IgG1, kappa, V domains shown) VH: QVQLVQSGAEVKKPGASVKVSCKASGYTFTDYFMKWVRQAPGQGLEWMGVINPNNGDIFYNQKFKGRVTMTVDKSISTAYMELSRLRSDDTAVYYCARGTDRALFAYWGQGTLVTVSS VL: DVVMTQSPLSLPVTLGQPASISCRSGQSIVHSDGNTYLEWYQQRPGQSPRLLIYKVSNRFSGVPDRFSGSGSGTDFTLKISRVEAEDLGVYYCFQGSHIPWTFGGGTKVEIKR
Response given: 0.111

Challenge: Query mCrhr1 Luciferase Reporter Assay IC50 for PR302341-24 (antibody, human IgG1, kappa, V domains shown) VH: QVQLVQSGAEVKKPGASVKVSCKASGYTFTDYFMKWVRQAPGQRLEWMGVINPNNGDIFYNQKFKGRVTITVDKSASTAYMELSSLRSEDTAVYYCARGTDRALFAYWGQGTLVTVSS VL: DVVMTQTPLSSPVTLGQPASISCRSGQSIVHSDGNTYLEWYQQRPGQPPRLLIYKVSNRFSGVPDRFSGSGAGTDFTLKISRVEAEDLGVYYCFQGSHIPWTFGGGTKVEIKR
Response given: 0.156

New cases:
Challenge: Query mCrhr1 Luciferase Reporter Assay IC50 for PR302341-10 (antibody, human IgG1, kappa, V domains shown) VH: QVQLVQSGAEVKKPGASVKVSCKASGYTFTDYFMKWVRQAPGQGLEWMGVINPNNGDIFYNQKFKGRVTMTVDKSTSTAYMELSSLRSEDTAVYYCARGTDRALFAYWGQGTLVTVSS VL: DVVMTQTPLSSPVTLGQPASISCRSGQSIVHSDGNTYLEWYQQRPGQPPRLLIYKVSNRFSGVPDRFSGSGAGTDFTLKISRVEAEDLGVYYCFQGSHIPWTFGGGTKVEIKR
Response given: 0.29

Measured values drawn from patent US20260042834A1 for this set.
